Consider the following compounds and their measured MIC readings.
Tested on: Candida albicans KCTC 7270
The reply should contain only the number, in µM.

Consider the worked cases shown below.
* NCCCC[C@H](NC(=O)[C@H](CCCCN)NC(=O)[C@H](Cc1cnc[nH]1)NC(=O)[C@H](CCCCN)NC(=O)[C@H](CCCCN)NC(=O)[C@H](Cc1cnc[nH]1)NC(=O)[C@H](CCCCN)NC(=O)[C@H](CCCCN)NC(=O)[C@H](Cc1cnc[nH]1)NC(=O)[C@H](CCCCN)NC(=O)[C@H](CCCCN)NC(=O)[C@H](Cc1cnc[nH]1)NC(=O)[C@H](CCCCN)NC(=O)[C@H](CCCCN)NC(=O)[C@H](Cc1cnc[nH]1)NC(=O)[C@H](CCCCN)NC(=O)[C@H](CCCCN)NC(=O)[C@@H](N)Cc1cnc[nH]1)C(N)=O | 16
* CC[C@H](C)[C@H](NC(=O)[C@H](CCCCN)NC(=O)[C@H](CO)NC(=O)[C@H](Cc1ccccc1)NC(=O)[C@H](CC(C)C)NC(=O)[C@H](CCCCN)NC(=O)[C@H](CCC(=O)O)NC(=O)[C@H](CC(C)C)NC(=O)[C@H](CCCN=C(N)N)NC(=O)[C@H](CCCCN)NC(=O)[C@H](Cc1ccccc1)NC(=O)[C@@H](NC(=O)[C@H](CCCCN)NC(=O)[C@H](CCCCN)NC(=O)[C@H](C)N)C(C)C)C(=O)N[C@@H](CCC(N)=O)C(=O)N[C@@H](CC(N)=O)C(=O)N[C@@H](CC(=O)O)C(=O)N[C@@H](CCCCN)C(N)=O | 25
* CC[C@H](C)[C@H](NC(=O)[C@H](CCCCN)NC(=O)[C@H](CO)NC(=O)[C@H](Cc1ccccc1)NC(=O)[C@H](CO)NC(=O)[C@H](CCCCN)NC(=O)[C@H](CCC(=O)O)NC(=O)[C@H](CC(C)C)NC(=O)[C@H](CCCN=C(N)N)NC(=O)[C@H](CCCCN)NC(=O)[C@H](Cc1ccccc1)NC(=O)[C@@H](NC(=O)[C@H](CCCCN)NC(=O)[C@H](CCCCN)NC(=O)[C@H](C)N)C(C)C)C(=O)N[C@@H](CCC(N)=O)C(=O)N[C@@H](CC(N)=O)C(=O)N[C@@H](CC(=O)O)C(=O)N[C@@H](CCCCN)C(N)=O | 25

Now consider a different compound.
Tell me reported MIC for `CC[C@H](C)[C@H](NC(=O)[C@H](CCCCN)NC(=O)[C@H](CCCCN)NC(=O)[C@H](Cc1ccccc1)NC(=O)[C@H](CC(C)C)NC(=O)[C@H](CCCCN)NC(=O)[C@H](CCCCN)NC(=O)[C@H](CC(C)C)NC(=O)[C@H](CCCN=C(N)N)NC(=O)[C@H](CCCCN)NC(=O)[C@H](C)N)C(=O)N[C@@H](Cc1c[nH]c2ccccc12)C(=O)N[C@@H](CC(N)=O)C(=O)N[C@@H](Cc1c[nH]c2ccccc12)C(=O)N[C@@H](CCCCN)C(N)=O` , tested with Candida albicans KCTC 7270.
8

* * *

Consider the following molecules and their measured MIC readings.
System: Pseudomonas aeruginosa ATCC 9027
method: ≥ marks a high value that may be exact or a test limit, other limits are often not marked, values filed in µg/mL are converted to µM
The reply should contain only the number, in µM.

Returns the measured MIC for the input molecule. Input: CC(C)[C@H](N)C(=O)N[C@@H](CCCN=C(N)N)C(=O)N[C@@H](Cc1c[nH]c2ccccc12)C(=O)N[C@@H](Cc1c[nH]c2ccccc12)C(=O)N[C@@H](Cc1c[nH]c2ccccc12)C(=O)N[C@@H](CCCN=C(N)N)C(=O)N[C@H](C(N)=O)C(C)C [VRWWWRV]
64

Returns the measured MIC for the input molecule. Input: CC[C@H](C)[C@H](NC(=O)[C@H](CO)NC(=O)[C@@H](NC(=O)[C@H](CCCCN)NC(=O)[C@H](Cc1ccccc1)NC(=O)[C@@H]1CCCN1)[C@@H](C)CC)C(=O)N[C@@H](Cc1cnc[nH]1)C(=O)N[C@@H](CC(C)C)C(N)=O [PFKISIHL]
50

Returns the measured MIC for the input molecule. Input: CC[C@H](C)[C@H](NC(=O)[C@H](Cc1ccc(O)cc1)NC(=O)[C@H](CCCCN)NC(=O)[C@H](CCCCN)NC(=O)[C@H](CC(C)C)NC(=O)[C@H](CC(C)C)NC(=O)[C@H](CCCCN)NC(=O)[C@H](CCCCN)NC(=O)[C@@H](NC(=O)[C@H](CC(C)C)NC(=O)[C@@H](N)CCCCN)C(C)C)C(=O)N[C@H](C(=O)N[C@@H](Cc1ccccc1)C(=O)O)[C@@H](C)O [KLVKKLLKKYITF]
4

Returns the measured MIC for the input molecule. Input: CC(C)C[C@H](NC(=O)[C@H](C)NC(=O)[C@H](CCCCN)NC(=O)[C@H](CCCCN)NC(=O)[C@H](CC(C)C)NC(=O)[C@H](C)NC(=O)[C@H](CCCCN)NC(=O)[C@H](CC(C)C)NC(=O)[C@H](C)NC(=O)[C@H](CC(C)C)NC(=O)[C@H](C)NC(=O)[C@@H](N)Cc1ccccc1)C(N)=O [FALALKALKKAL]
38.9

Returns the measured MIC for the input molecule. Input: CC(C)[C@H](NC(=O)[C@H](CS)NC(=O)[C@@H](NC(=O)[C@H](CCCN=C(N)N)NC(=O)[C@H](CCCCN)NC(=O)CNC(=O)[C@H](CC(N)=O)NC(=O)[C@H](CS)NC(=O)[C@@H](N)Cc1ccc(O)cc1)C(C)C)C(=O)N[C@@H](CS)C(=O)N[C@@H](CCCN=C(N)N)C(N)=O [YCNGKRVCVCR]
38.4

Returns the measured MIC for the input molecule. Input: CC(C)C[C@H](NC(=O)[C@H](Cc1c[nH]c2ccccc12)NC(=O)[C@@H](NC(=O)[C@H](CC(C)C)NC(=O)[C@@H]1CCCN1C(=O)[C@@H](N)Cc1ccccc1)[C@@H](C)O)C(=O)N[C@@H](CCCCN)C(=O)N[C@@H](Cc1c[nH]c2ccccc12)C(=O)N[C@@H](Cc1c[nH]c2ccccc12)C(=O)N[C@@H](CCCCN)C(=O)N[C@@H](Cc1c[nH]c2ccccc12)C(=O)N[C@@H](CCCCN)C(=O)N[C@@H](CCCCN)C(N)=O [FPLTWLKWWKWKK]
33.8
